MEASUREMENT_PROTOCOL: aqueous solubility at various pH
Type: physicochemical
DETAILS: aqueous medium, pH 3.92, aqueous buffer; pH of about 3.92
Non-standard residues stand in square brackets, D forms with d. Residues, ends and D or L forms follow the SMILES beside them. Dopa = N[C@@H](Cc1ccc(O)c(O)c1)C(=O)O
QUANTITY_MEASURED: solubility

Ask | Using the record for N[C@@H](Cc1ccc(O)c(O)c1)C(=O)N[C@@H](Cc1ccc(O)cc1)C(=O)O [Form N] (H-[Dopa]-Tyr-OH) , state its measured solubility.
Reply | ~1540 µg/mL

----------
MEASUREMENT_PROTOCOL: aqueous solubility at various pH
Assay type: physicochemical
DETAILS: aqueous solution, pH 8.69, aqueous buffer; pH of about 8.69
Non-standard residues stand in square brackets, D forms with d. Residues, ends and D or L forms follow the SMILES beside them. Dopa = N[C@@H](Cc1ccc(O)c(O)c1)C(=O)O
QUANTITY_MEASURED: solubility

Ask | // fetch solubility given entry N[C@@H](Cc1ccc(O)c(O)c1)C(=O)N[C@@H](Cc1ccc(O)cc1)C(=O)O [Form N] (H-[Dopa]-Tyr-OH)
Reply | ~111 mg/mL

Cited source for all entries: patent US20250243242A1
